B1: Receptor-interacting serine/threonine-protein kinase 2, residues 438 to 518; numbered along this chain, O43353 (parent)
chain: QWIQSKREDIVNQMTEACLNQSLDALLSRDLIMKEDYELVSTKPTRTSKVRQLLDTTDIQGEEFAKVIVQKLKDNKQMGLQ

Variants of: B1
method: abundance fitness (aPCA) (normalised: wild type 0, dead -1); higher = more abundant; growth selection in yeast, the domain comes from the species named
condition parameters: Homo sapiens
measured endpoint: abundance fitness

QWIQSKREDIVNQMTEACLNQSLDALLSRDLIMKEDYELVSTKPTRTSKVRQLLDTTDIQGEEFAPVIVQKLKDNKQMGLQ [K66P] | -0.471
QWIQSKREDIVNQMTEACLNQSLDALLSRDLIMKEDYELVSTKPWRTSKVRQLLDTTDIQGEEFAKVIVQKLKDNKQMGLQ [T45W] | -0.571
QWIQSKREDIVNQMTEACLNQSLDALLSRDLIMKEDYELVSTKPTRTSKVRQLLDTTDIQGEEFAKVIVVKLKDNKQMGLQ [Q70V] | -0.714
QWIQSKREDIVNQMTEACLNQSLDALLSRDLIMKEDYELVSTKPTRTSKVRQLLDTTDIQGEEFVKVIVQKLKDNKQMGLQ [A65V] | -0.933
QWIQSKREDIVNQMTEACLNQSLMALLSRDLIMKEDYELVSTKPTRTSKVRQLLDTTDIQGEEFAKVIVQKLKDNKQMGLQ [D24M] | -0.719
QWIQSKREDIVNQMTEACLNQSLDALLSRDLIMKEDYELVSTKPTRTSKVRQLLDTTDIQGEEFAHVIVQKLKDNKQMGLQ [K66H] | -0.459
QWIQSKREDIVNQMTEACLNQSLDALLSRDLIMKEDYELVSTKPTRTSKVRQLLDTTDIQGEERAKVIVQKLKDNKQMGLQ [F64R] | -0.475
QWIQSKREDIVNQMTEACLNQSLDALLSRDLIMKEDYELVSAKPTRTSKVRQLLDTTDIQGEEFAKVIVQKLKDNKQMGLQ [T42A] | -0.069
QWIQSKREDIVNQMTEACLNQSLDALLSRDLIMKEDYELVSTKPTRTSKVRQLLDTTDIQGEEFAKVIVQKLKDNLQMGLQ [K76L] | -0.125
QWIQSKREDIVNQMTEACLNQSLDALLSRDLIMKEDYELVSTKPTHTSKVRQLLDTTDIQGEEFAKVIVQKLKDNKQMGLQ [R46H] | -0.012
QWIQSKREDIVNQMTEACLNQSLDALLSRDLIMKEDYELVSTKPTRTSKVRQLLDTTDIQQEEFAKVIVQKLKDNKQMGLQ [G61Q] | -0.243
QWIQSKREDIVNQMTEACLNQSLDAQLSRDLIMKEDYELVSTKPTRTSKVRQLLDTTDIQGEEFAKVIVQKLKDNKQMGLQ [L26Q] | -0.31
QWIQSKREDIVNQMTEACLNQSLDALLSRDLIMKEDYELVSTKPTRTSKVRQLLDTTDIQGEEFFKVIVQKLKDNKQMGLQ [A65F] | -1.12
QWIQSKREDIVNQMTEACLNQSLDALLSRDLIMKEDYLLVSTKPTRTSKVRQLLDTTDIQGEEFAKVIVQKLKDNKQMGLQ [E38L] | -0.075
QWIQSKREDIVNQMTEACLNQSLDALLSRDLIMKEDYELVSTKPTRTSKVRQLLDTTCIQGEEFAKVIVQKLKDNKQMGLQ [D58C] | 0.035
QWIQSKREDIVNQMTEACLNQSLDALLSRDLIMKEDYELNSTKPTRTSKVRQLLDTTDIQGEEFAKVIVQKLKDNKQMGLQ [V40N] | -0.466
QWIQSKREDIVNQMTEACLNQSLDALLSRDLIMKEDYELVSTKPTRTSKVRQLLDTTDIQGEEFAKVINQKLKDNKQMGLQ [V69N] | -0.94
QWIQSKREDIVNQMTEACLNQSLDALLSRDLIMKEDYELVSTKPTRTSKVRQLLDTTDIQGEEFAKVIVQCLKDNKQMGLQ [K71C] | -0.02
QWIQSKREDIVNQMTEACLNQSLDALLSRDLINKEDYELVSTKPTRTSKVRQLLDTTDIQGEEFAKVIVQKLKDNKQMGLQ [M33N] | -0.132
QWIQSKREDIVNQMTEACLNQSLDALLSRDLIMKEDYELVRTKPTRTSKVRQLLDTTDIQGEEFAKVIVQKLKDNKQMGLQ [S41R] | 0.046
QWIQSKREDIVNQMTEACLNQSLDALLSRDLIMKEDYELVSTKPTRTSVVRQLLDTTDIQGEEFAKVIVQKLKDNKQMGLQ [K49V] | -0.784
QWIQSKREDIVNQMTEACLNQSLDALLSRDLIMKEDYELVSTKPTRTSKVRQLLETTDIQGEEFAKVIVQKLKDNKQMGLQ [D55E] | -0.015
QWIQSKREDIVNQMTEACLNQSLDALLSRDLIMKEDYELVSTKPTRTSIVRQLLDTTDIQGEEFAKVIVQKLKDNKQMGLQ [K49I] | -0.564
QWIQSKREDIVNQMTEACLNQSLDALLSRDLIMKEDYELVSTKPTRTSKVRQLLDTIDIQGEEFAKVIVQKLKDNKQMGLQ [T57I] | 0.044
QWIQSKREDIVNQMTEACLNQSLDALLSRDLIMKEDYELVSTKPTRTSKVRQLLDTTDIQGEEFAKVIVQKYKDNKQMGLQ [L72Y] | -0.695
QWIQSKREDIVNQMTEACLNQSLDALLSRDLIMKEDYELVSTKPTRTSKVRQLLDTTDIQGEEFAKVIVQKLKINKQMGLQ [D74I] | -0.261
QWIQSKREDIVNQMTEACLNQSLDALLSRDLIMKEDYTLVSTKPTRTSKVRQLLDTTDIQGEEFAKVIVQKLKDNKQMGLQ [E38T] | -0.157
QWIQSKREDIVNQMTEACLNQSLDALLSRDLIMKEDYELVSTKPTRTSKVRQLLDTTDIQGEEFAKVIVQKLKYNKQMGLQ [D74Y] | -0.173
QWIQSKREDIVNQMTEACLNQSLDALLSRQLIMKEDYELVSTKPTRTSKVRQLLDTTDIQGEEFAKVIVQKLKDNKQMGLQ [D30Q] | -0.073
QWIQSKREDIVNQMTEACLNQSLDALLSRDLIMREDYELVSTKPTRTSKVRQLLDTTDIQGEEFAKVIVQKLKDNKQMGLQ [K34R] | -0.124
QWIQSKREDIVNQMTEACLNQSLDALLSRDLIMKEDYELVSTVPTRTSKVRQLLDTTDIQGEEFAKVIVQKLKDNKQMGLQ [K43V] | -0.348
QWIQSKREDIVNQMTEACLNQSLDALLSRDLIMKEDYELVSTKPTRTSKVRDLLDTTDIQGEEFAKVIVQKLKDNKQMGLQ [Q52D] | -0.526
QWIQSKREDIVNQMTEACLNQSLDALLSRDLIMKEQYELVSTKPTRTSKVRQLLDTTDIQGEEFAKVIVQKLKDNKQMGLQ [D36Q] | 0.121
